System: MDA-MB-231 breast
Experimental Details: NCI-60 one-dose screen, 48 h (100 = growth as untreated, 0 = no growth, -100 = all killed)
Details: 10 µM unless noted
Compounds without any hit were thinned out: in the full panel of roughly 83,000, 20% have a hit. Calls of active or inactive are those of the source. Rule for the calls: active = growth percent below 10; inactive = the rest.
Readout Kind: growth

{"Compound": "CN(C)CCC(=O)c1ccc([N+](=O)[O-])cc1", "Readout Kind": "growth", "Recorded Measurement": "100% (inactive)"}
{"Compound": "N#CC1=C(/N=C/c2ccccc2)Oc2c(ccc3ccccc23)C1c1ccc([N+](=O)[O-])cc1 (centres undefined)", "Readout Kind": "growth", "Recorded Measurement": "72.7% (inactive)"}
{"Compound": "O=C(/C=C/c1ccc(F)cc1)c1ccc(NC(=O)N2CCN(c3cc4c(cc3F)c(=O)c(C(=O)O)cn4C3CC3)CC2)cc1", "Readout Kind": "growth", "Recorded Measurement": "89.7% (inactive)"}
{"Compound": "COc1cc(/C=N/O)nc(-c2ccccn2)c1", "Readout Kind": "growth", "Recorded Measurement": "26.5% (inactive)"}
{"Compound": "Oc1c(Cl)cc(Cl)c(Cl)c1CNCCNCc1c(O)c(Cl)cc(Cl)c1Cl", "Readout Kind": "growth", "Recorded Measurement": "35.5% (inactive)"}
{"Compound": "CC(Oc1ccc(C(=O)O)cc1C(F)(F)F)c1ccc(Oc2ccccc2)cn1 (centres undefined)", "Readout Kind": "growth", "Recorded Measurement": "101% (inactive)"}
{"Compound": "O=C(Nc1ccc(-c2ccc3c(c2)NC(=O)/C3=C\\c2ccc[nH]2)cc1)NC1CC1", "Readout Kind": "growth", "Recorded Measurement": "101% (inactive)"}
{"Compound": "Cc1c(C)c([N+](=O)[O-])c(C)c([N+](=O)[O-])c1C", "Readout Kind": "growth", "Recorded Measurement": "101% (inactive)"}
{"Compound": "C=C1C(=O)O[C@H]2[C@H]1CC/C(C(=O)NCCCCCNC(=O)/C1=C/CC[C@@]3(C)O[C@H]3[C@H]3OC(=O)C(=C)[C@@H]3CC1)=C\\CC[C@@]1(C)O[C@@H]21", "Readout Kind": "growth", "Recorded Measurement": "106% (inactive)"}
